Kindly supply the reported relative viability values for the records listed here.
Tested on: NCI-H1299
EXPERIMENT_NOTES: relative viability (nuclei count vs DMSO), 5 days (fraction); higher = more cells survive
DETAILS: first compound 0.01 µM
No unit in the answer, please; the number alone is enough.

Lookup result for CCN(CC)CCCCNc1ncc2cc(-c3cc(OC)cc(OC)c3)c(NC(=O)NC(C)(C)C)nc2n1 + Cc1nc(NC(=O)N2CCC[C@H]2C(N)=O)sc1-c1ccnc(C(C)(C)C(F)(F)F)c1 [Alpelisib] (partner 2 µM) ; measured relative viability: 1.12

Reported relative viability ( O=c1cc(N2CCOCC2)oc2c(-c3cccc4c3sc3ccccc34)cccc12 + O=C(c1cc(Cc2n[nH]c(=O)c3ccccc23)ccc1F)N1CCN(C(=O)C2CC2)CC1 [Olaparib] (partner 8 µM) ) = 0.961

relative viability recorded for this compound, CCN(CC)CCCCNc1ncc2cc(-c3cc(OC)cc(OC)c3)c(NC(=O)NC(C)(C)C)nc2n1 + COc1cc2c(Oc3ccc(NC(=O)C4(C(=O)Nc5ccc(F)cc5)CC4)cc3F)ccnc2cc1OCCCN1CCOCC1 [Foretinib] (partner 0.25 µM) , is 1.12

Reported relative viability of O=c1cc(N2CCOCC2)oc2c(-c3cccc4c3sc3ccccc34)cccc12 + CC1(C)CCC(c2ccc(Cl)cc2)=C(CN2CCN(c3ccc(C(=O)NS(=O)(=O)c4ccc(N[C@H](CCN5CCOCC5)CSc5ccccc5)c(S(=O)(=O)C(F)(F)F)c4)cc3)CC2)C1 [Navitoclax] (partner 0.5 µM) : 1.02

The recorded relative viability for entry O=c1cc(N2CCOCC2)oc2c(-c3cccc4c3sc3ccccc34)cccc12 + CS(=O)(=O)CCNCc1ccc(-c2ccc3ncnc(Nc4ccc(OCc5cccc(F)c5)c(Cl)c4)c3c2)o1 [Lapatinib] (partner 2 µM) equals 0.957

Short answer for CCN(CC)CCCCNc1ncc2cc(-c3cc(OC)cc(OC)c3)c(NC(=O)NC(C)(C)C)nc2n1 + C[C@]1(O)C[C@@H](c2nc(-c3ccc4ccc(-c5ccccc5)nc4c3)c3c(N)nccn32)C1 [Linsitinib] (partner 1 µM) : relative viability was 1.01

get_value(item= CCN(CC)CCCCNc1ncc2cc(-c3cc(OC)cc(OC)c3)c(NC(=O)NC(C)(C)C)nc2n1 + CC(C)C[C@H](NC(=O)[C@H](Cc1ccccc1)NC(=O)c1cnccn1)B(O)O [Bortezomib] (partner 0.002 µM) , readout=relative viability) returns 1.11

Reported relative viability for CCN(CC)CCCCNc1ncc2cc(-c3cc(OC)cc(OC)c3)c(NC(=O)NC(C)(C)C)nc2n1 + C[C@@H](Oc1cc(-c2cnn(C3CCNCC3)c2)cnc1N)c1c(Cl)ccc(F)c1Cl [Crizotinib] (partner 1 µM) was 1
